Cited source for all entries: PubChem BioAssay AID330

- System: P388 leukemia ip, CD2F1 mice, survival T/C
- EXPERIMENT_NOTES: NCI In Vivo Anticancer Drug Screen. Data for tumor model P388 Leukemia (intraperitoneal) in CD2F1 (CDF1) mice
- EXPERIMENTAL_CONTEXT: endpoint: median survival time; dose: 200.0 mg/kg/injection; schedule: Q01DX009 (ip); vehicle: Klucel (hydroxypropylcellulose) (HPC); higher = longer survival
Toxic doses and inconclusive results are not listed.
MEASURED_ATTRIBUTE: T/C

Name the recorded T/C for CCSc1nc2ccc(NC(=O)/C=C/C(=O)O)cc2s1 .
95 % of control

Name the recorded T/C for Cc1[nH]c2ccc(N(C)C)cc2c(=O)c1CN1CCCCC1 .
108 % of control

Name the recorded T/C for Cn1nnc(/C(N)=N/N=C/c2ccccc2)n1 .
94 % of control

Name the recorded T/C for O=C(Nc1ccc([N+](=O)[O-])cc1)C1C(=O)C(=O)N(c2ccc([N+](=O)[O-])cc2)C1=O (stereo not given) .
104 % of control

Name the recorded T/C for Nc1nc(N)nc(NCCSS(=O)(=O)O)n1 .
91 % of control

Name the recorded T/C for CC(C)(C)c1ccc(NC(=O)Oc2ccccc2)cc1 .
102 % of control

Name the recorded T/C for O=C(Nc1cccc2ccccc12)C1C(=O)C(=O)N(c2cccc3ccccc23)C1=O (stereo not given) .
100 % of control

Name the recorded T/C for C=CCc1ccc(C(=O)OCCCCCCCCCC)c(OC)c1 .
105 % of control

Name the recorded T/C for COc1ccc(/C(N)=N/OCc2ccc(C#N)cc2)cc1 .
95 % of control

Name the recorded T/C for O=C1C=C(Nc2ccccc2C(=O)O)C(=O)C=C1Nc1ccccc1C(=O)O .
113 % of control

Name the recorded T/C for COc1ccc(OC)c(/C=C/c2ccc([N+](=O)[O-])cc2)c1 .
86 % of control

Name the recorded T/C for Cc1cc(Br)c(N)c(C(O)(C(F)(F)F)C(F)(F)F)c1 .
108 % of control

Name the recorded T/C for Cc1cc(C)nc(NS(=O)(=O)c2ccc(NC(=O)Nc3cc(F)ccc3F)cc2)n1 .
91 % of control

Name the recorded T/C for Cc1noc2c1N=C(c1ccccc1O)CC(c1ccccc1)C2 (stereo not given) .
99 % of control

Name the recorded T/C for CC1COn2c1nc1ccccc1c2=O (stereo not given) .
104 % of control

Name the recorded T/C for C=C[Si]12OCCN(CCO1)CCO2 .
102 % of control

Name the recorded T/C for Cc1ccc(C(=O)NNC(=O)Nc2cccc(Cl)c2C)cc1 .
93 % of control

Name the recorded T/C for CC(=O)Oc1cc(C)cc2ccc(-c3ccc4cc(C)cc(OC(C)=O)c4c3OC(C)=O)c(OC(C)=O)c12 .
96 % of control

Name the recorded T/C for CSc1c(C(=O)NC(C)C)cc(C(C)(C)C)cc1C(=O)NC(C)C .
89 % of control

Name the recorded T/C for O=C(NC(c1ccccc1)c1ccccc1)OCc1c2ccccc2cc2ccccc12 .
100 % of control

* * *

- System: P388 leukemia ip, CD2F1 mice, survival T/C
- EXPERIMENT_NOTES: NCI In Vivo Anticancer Drug Screen. Data for tumor model P388 Leukemia (intraperitoneal) in CD2F1 (CDF1) mice
- EXPERIMENTAL_CONTEXT: endpoint: median survival time; dose: 240.0 mg/kg/injection; schedule: Q01DX005 (ip); vehicle: saline with Tween-80
Toxic doses and inconclusive results are not listed. How the source made its calls: active means survival T/C of 150% or more; inactive means T/C below 125% in these data.
Outcomes you can answer with include only these: 1.0 (active), 0.0 (inactive)

Outcome? N/C(=N\C(=O)OCc1ccccc1)N(CCCC(NC(=O)OCc1ccccc1)C(=O)O)C(=O)OCc1ccccc1 (centres undefined)
0.0

Outcome? O=[N+]([O-])c1cc(C(Nc2nncs2)Nc2nncs2)ccc1Cl
1.0

Outcome? C/C(=C1/SC(=S)NC1=O)c1ccc(Cl)c(O)c1
0.0

Outcome? Cc1c(Cc2ccccc2)c(N2CCOCC2)n2c(nc3ccccc32)c1C#N
0.0
